test_target: T1, melanocortin-1 receptor (mouse (B-16 melanoma cells); in some …, UniProt Q01727 1-315)
T1 construct: whole, on cells; membrane homogenates; also called MC1-R; mouse B16 MC1-R
T1 sequence (Q01727 whole entry): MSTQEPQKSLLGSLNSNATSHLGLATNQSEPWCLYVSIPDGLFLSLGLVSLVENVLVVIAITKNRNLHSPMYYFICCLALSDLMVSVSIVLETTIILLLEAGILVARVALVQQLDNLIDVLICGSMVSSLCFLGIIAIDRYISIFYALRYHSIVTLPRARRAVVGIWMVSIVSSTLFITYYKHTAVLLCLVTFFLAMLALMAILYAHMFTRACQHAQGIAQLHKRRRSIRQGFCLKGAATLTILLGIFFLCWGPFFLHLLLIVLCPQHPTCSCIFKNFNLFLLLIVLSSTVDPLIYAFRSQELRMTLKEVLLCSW
test_name: [I125]-NDP-α-MSH competition, MC1-R membranes
pKi: −log10 of the molar value. Positions of bridges follow the written chain, without caps; N, C: chain ends. Non-standard residues stand in square brackets, D forms with d. dPhe(2-CF3) = N[C@H](Cc1ccccc1C(F)(F)F)C(=O)O; dPhe(4-CN) = N#Cc1ccc(C[C@@H](N)C(=O)O)cc1; dPhe(2-Cl) = N[C@H](Cc1ccccc1Cl)C(=O)O; dPhe(2-Me) = Cc1ccccc1C[C@@H](N)C(=O)O; Orn = NCCC[C@H](N)C(=O)O
experimental_endpoint: pKi

Study these solved cases before continuing.
>  <binder>
Ac-REN[dPhe(4-CN)]RW[Orn]-NH2 (lactam 2-7; also: acetate salt, acetate salt form; also called Ex 43) [Ac-Arg-cyclo(Glu-Asn-D-Phe(4-CN)-Arg-Trp-Orn)-NH2]

>  <pKi>
6.06

$$$$
>  <binder>
Ac-REQ[dPhe(2-Cl)]RW[Orn]-NH2 (lactam 2-7, also called No. 34) [Ac-Arg-cyclo(Glu-Gln-D-Phe(2-Cl)-Arg-Trp-Orn)-NH2]

>  <pKi>
6.89

$$$$

A = Ac-R[Orn]N[dPhe(2-Me)]RWE-NH2 (lactam 2-7, also called No. 74) [Ac-Arg-cyclo(Orn-Asn-D-Phe(2-Me)-Arg-Trp-Glu)-NH2]
B = Ac-R[Orn]Q[dPhe(2-CF3)]RWE-NH2 (lactam 2-7, also called No. 115) [Ac-Arg-cyclo(Orn-Gln-D-Phe(2-CF3)-Arg-Trp-Glu)-NH2]
Smaller pKi value? Options are A and B Identify your pick by its label.
A

Data origin: patent US20100311648A1
